Reference for the values: the Human Domainome abundance scans (Beltran et al. 2025)

B1: Transcription intermediary factor 1-beta, residues 620 to 671; numbered along this chain, Q13263 (parent)
chain: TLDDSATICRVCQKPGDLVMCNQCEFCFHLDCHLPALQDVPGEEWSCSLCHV

Variants of: B1
Test: abundance fitness (aPCA) (normalised: wild type 0, dead -1); higher = more abundant; growth selection in yeast, the domain comes from the species named
Details: Homo sapiens
metric: abundance fitness
Reply: number alone, nothing else.

Ask: // lookup abundance fitness for "L34Y"
Result: 0.062

Ask: Name the reported abundance fitness value associated with the variant "D39Q"
Result: -0.184

Ask: Name the recorded abundance fitness for "L18N" .
Result: -0.662

Ask: Recorded abundance fitness of "L37Q" , please.
Result: -0.108

Ask: Fill in: abundance fitness of "E25P" is ___
Result: -0.66

Ask: Query (variant): "S5Q" ; field requested: abundance fitness
Result: -0.215

Ask: Look up abundance fitness: "D17H"
Result: 0.01

Ask: Dear colleague, I am looking for the recorded abundance fitness of the following variant: "G42L"
Result: -0.086

Ask: Any idea what its abundance fitness is? The variant is "V19D"
Result: 0.025

Ask: // abundance fitness lookup, key: "D3G"
Result: -0.411

Ask: If you can, please state the reported abundance fitness value of "P15L" .
Result: -0.684

Ask: Request the reported abundance fitness associated with "F28V"
Result: -0.227

Ask: Any idea what abundance fitness was measured for "S46W" ?
Result: -0.131

Ask: Given the variant "S5W" , what is its reported abundance fitness?
Result: -0.307

Ask: Given "R10W" , state its recorded abundance fitness.
Result: -0.574

Ask: What measured abundance fitness goes with "I8N" ?
Result: -0.045

Ask: // lookup abundance fitness for "C9G"
Result: -0.931

Ask: # query: abundance fitness of entry "T1R"
Result: -0.495

Ask: For the variant shown here, "S48V" , give the reported abundance fitness.
Result: -0.508

Ask: What value of measured abundance fitness is listed for "L2W" ?
Result: -0.323

Ask: Name the recorded abundance fitness for "F26E" .
Result: 0.04

Ask: Which abundance fitness is reported for this variant? "L30M"
Result: -0.299

Ask: Which value of abundance fitness has been reported for "C32T" in the records?
Result: -0.937

Ask: Quick one: abundance fitness for "P41N" ?
Result: -0.112

Ask: Name the recorded abundance fitness for "V19H" .
Result: 0.116

Ask: Report abundance fitness for "V52F" please.
Result: -0.18

Ask: Need abundance fitness, item "D39G"
Result: -0.235

Ask: I have this variant here, "S5V" , and I need its recorded abundance fitness.
Result: -0.381

Ask: Look at this variant and give its reported abundance fitness. "Q13S"
Result: 0.036

Ask: Item "E44M" has what recorded abundance fitness?
Result: -0.058

Ask: Entry under review: "P15S" . Reported abundance fitness?
Result: -0.022

Ask: What value of measured abundance fitness is listed for "S46Q" ?
Result: 0.118

Ask: May I ask what abundance fitness has been recorded for "G42A" ?
Result: 0.014

Ask: Can you look up the measured abundance fitness of "M20C" for me?
Result: -0.225

Ask: Consider the variant shown here: "N22H" What is its recorded abundance fitness?
Result: -0.449

Ask: # input variant: "T7A" ; wanted: its abundance fitness
Result: -0.123

Ask: May I ask what abundance fitness has been recorded for "Q23A" ?
Result: -0.395

Ask: // abundance fitness lookup, key: "P15Y"
Result: -0.255

Ask: Need abundance fitness of "Q23W" , thanks.
Result: -0.383

Ask: Sample "Q13P" — what was its abundance fitness?
Result: -0.82

Ask: Record request: abundance fitness value, item "C21L"
Result: -0.837

Ask: Could you tell me which abundance fitness is on file for "C21A" ?
Result: -0.995

Ask: Find the recorded abundance fitness belonging to "C21T" and report it.
Result: -0.95

Ask: If you can, please state the reported abundance fitness value of "S5I" .
Result: -0.04

Ask: Which abundance fitness reading was recorded for the variant "H33N" ?
Result: -0.139

Ask: If you can, please state the reported abundance fitness value of "C24S" .
Result: -1
